target: UniProt:P00533; conditions: kb
readout: IC50 (nM)

> print(dat)
                          structure.string  unit.abbrev  numeric.readout
1  Fc1ccc(Nc2ncnc3cnc(NN4CCOCC4)nc23)cc1Cl           nM              100

----------
target: EGFR (human) (UniProt P00533)
Sequence (P00533 whole entry, looked up): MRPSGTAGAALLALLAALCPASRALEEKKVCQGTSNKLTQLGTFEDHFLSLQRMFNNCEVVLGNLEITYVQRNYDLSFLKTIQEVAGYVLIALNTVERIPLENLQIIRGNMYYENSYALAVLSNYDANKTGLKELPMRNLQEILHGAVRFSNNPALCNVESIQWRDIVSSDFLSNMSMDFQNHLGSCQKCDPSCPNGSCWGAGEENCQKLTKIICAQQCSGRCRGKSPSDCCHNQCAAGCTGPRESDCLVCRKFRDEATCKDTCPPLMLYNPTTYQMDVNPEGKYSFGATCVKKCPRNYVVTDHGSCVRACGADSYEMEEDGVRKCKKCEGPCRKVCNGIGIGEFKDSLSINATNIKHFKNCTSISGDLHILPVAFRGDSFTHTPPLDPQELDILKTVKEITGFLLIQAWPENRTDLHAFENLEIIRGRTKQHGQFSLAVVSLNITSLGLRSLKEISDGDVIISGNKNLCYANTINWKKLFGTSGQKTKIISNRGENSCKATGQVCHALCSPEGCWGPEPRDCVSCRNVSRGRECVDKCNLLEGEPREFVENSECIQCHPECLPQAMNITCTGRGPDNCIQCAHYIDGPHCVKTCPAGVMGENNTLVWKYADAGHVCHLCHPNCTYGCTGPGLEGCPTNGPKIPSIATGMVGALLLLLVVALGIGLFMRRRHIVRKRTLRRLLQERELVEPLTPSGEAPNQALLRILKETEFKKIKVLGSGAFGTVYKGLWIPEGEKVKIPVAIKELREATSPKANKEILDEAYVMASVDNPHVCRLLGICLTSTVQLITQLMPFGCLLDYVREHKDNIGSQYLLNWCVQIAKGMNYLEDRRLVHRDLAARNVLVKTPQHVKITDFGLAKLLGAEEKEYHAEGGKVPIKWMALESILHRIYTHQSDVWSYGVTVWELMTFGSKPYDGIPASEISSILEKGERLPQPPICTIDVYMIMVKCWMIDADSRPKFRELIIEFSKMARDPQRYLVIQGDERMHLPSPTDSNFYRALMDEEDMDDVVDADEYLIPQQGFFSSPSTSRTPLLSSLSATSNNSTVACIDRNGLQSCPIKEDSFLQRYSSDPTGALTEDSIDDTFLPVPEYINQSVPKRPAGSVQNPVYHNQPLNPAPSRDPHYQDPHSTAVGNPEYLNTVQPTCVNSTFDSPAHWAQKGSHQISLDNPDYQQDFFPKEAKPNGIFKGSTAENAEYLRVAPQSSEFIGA
readout: IC50

> print(dat)
                           structure.string  readout  result
1  CN1CCN(c2ccc3[nH]c(-c4cc(-c5ccc(NC(=O)Nc6cccc(Cl)c6)cc5)[nH]n4)nc3c2)CC1     IC50  ≥ 5 µM

----------
target: MAPK14 (UniProt Q16539); assay: Inhibition of MAPK14 Kinase Activity (Spectrophometric Assay)
Sequence (Q16539 whole entry, looked up): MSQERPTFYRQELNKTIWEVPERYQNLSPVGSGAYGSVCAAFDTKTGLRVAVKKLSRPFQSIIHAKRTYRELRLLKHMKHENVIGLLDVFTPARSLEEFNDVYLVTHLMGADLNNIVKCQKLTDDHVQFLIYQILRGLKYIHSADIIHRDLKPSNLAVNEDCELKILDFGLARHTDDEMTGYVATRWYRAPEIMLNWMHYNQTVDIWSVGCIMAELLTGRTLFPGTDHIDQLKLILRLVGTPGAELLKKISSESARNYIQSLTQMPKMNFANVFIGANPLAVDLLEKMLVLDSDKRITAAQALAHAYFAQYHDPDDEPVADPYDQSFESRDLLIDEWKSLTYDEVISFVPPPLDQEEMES
pIC50: −log10 of the molar value.
A collection of compounds and their measured pIC50
readout: pIC50

> print(dat)
                                   compound  readout  numeric.readout
1  CC12CC(C(=O)O)CC(C)(C1)C(=O)N(Cc1cccc(-n3nc(C(C)(C)C)cc3NC(=O)Nc3cccc4ccccc34)c1)C2=O (configuration not stated)    pIC50             6.02
2  CC(C)(C)c1cc(NC(=O)Nc2cccc3ccccc23)n(-c2ccc(CO)cc2)n1    pIC50             8.10
